- System: Streptococcus pasteurianus
- measurement.notes: Antibacterial activity against high-level gentamicin resistant Streptococcus pasteurianus SB10 isolate carrying transposon-borne resistance gene [aac(6')Ie-aph(2'')Ia] by agar dilution method
- Type: functional
As shown below, each of these molecules has a reported log10 MIC value.
measurement.name: log10 MIC (log10 of the value in mg/L)

molecule: CN[C@@H]1[C@H](O[C@H]2[C@H](O[C@H]3[C@H](O)[C@@H](O)[C@H](N=C(N)N)[C@@H](O)[C@@H]3N=C(N)N)O[C@@H](C)[C@]2(O)C=O)O[C@@H](CO)[C@H](O)[C@H]1O [STREPTOMYCIN]
log10 MIC: 1.51
//
molecule: CCC[C@@H]1C[C@@H](C(=O)N[C@@H]([C@H]2O[C@H](SC)[C@H](O)[C@@H](O)[C@H]2O)[C@H](C)Cl)N(C)C1 [CLINDAMYCIN]
log10 MIC: 2.41
//
molecule: NCC[C@H](O)C(=O)N[C@@H]1C[C@H](N)[C@@H](O[C@H]2O[C@H](CN)[C@@H](O)[C@H](O)[C@H]2O)[C@H](O)[C@H]1O[C@H]1O[C@H](CO)[C@@H](O)[C@H](N)[C@H]1O [AMIKACIN]
log10 MIC: 1.81
//
molecule: CCN[C@@H]1C[C@H](N)[C@@H](O[C@H]2OC(CN)=CC[C@H]2N)[C@H](O)[C@H]1O[C@H]1OC[C@](C)(O)[C@H](NC)[C@H]1O [NETILMICIN]
log10 MIC: 1.81
//
molecule: CN(C)c1ccc(O)c2c1C[C@H]1C[C@H]3[C@H](N(C)C)C(O)=C(C(N)=O)C(=O)[C@@]3(O)C(O)=C1C2=O [MINOCYCLINE]
log10 MIC: 0.90
//
molecule: CN(C)[C@@H]1C(O)=C(C(N)=O)C(=O)[C@@]2(O)C(O)=C3C(=O)c4c(O)cccc4[C@@](C)(O)[C@H]3C[C@@H]12 [TETRACYCLINE]
log10 MIC: 2.11
